biological target: T1, cSNK:BSA conjugate (bovine, head-to-tail cyclized; conjugated to BSA carrier); experiment: BLI 2:1 fit, site 1; 50 nM row
T1 construct: also called BSA-cSNK
T1 sequence (P02769 25-607 limits assumed): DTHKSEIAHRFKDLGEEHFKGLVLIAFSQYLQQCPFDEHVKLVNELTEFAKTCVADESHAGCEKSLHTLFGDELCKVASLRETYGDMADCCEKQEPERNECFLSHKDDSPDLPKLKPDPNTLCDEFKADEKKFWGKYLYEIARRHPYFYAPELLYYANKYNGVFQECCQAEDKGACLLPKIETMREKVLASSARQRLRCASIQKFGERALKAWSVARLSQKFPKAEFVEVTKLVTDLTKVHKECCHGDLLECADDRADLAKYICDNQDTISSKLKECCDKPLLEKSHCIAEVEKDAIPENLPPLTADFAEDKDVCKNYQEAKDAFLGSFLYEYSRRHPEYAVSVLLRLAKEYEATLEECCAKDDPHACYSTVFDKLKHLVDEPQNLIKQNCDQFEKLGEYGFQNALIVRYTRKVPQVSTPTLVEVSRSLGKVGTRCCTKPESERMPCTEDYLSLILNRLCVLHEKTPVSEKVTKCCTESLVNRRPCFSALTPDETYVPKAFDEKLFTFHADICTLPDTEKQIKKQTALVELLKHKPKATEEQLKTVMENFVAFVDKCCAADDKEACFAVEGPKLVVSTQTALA
measured.quantity: kon (M⁻¹ s⁻¹)
A number alone suffices; assume M⁻¹ s⁻¹.

Need kon, item hu5E3-IgG2 (antibody, V domains shown, human IgG2/kappa; also called humanized 5E3 IgG2) VH: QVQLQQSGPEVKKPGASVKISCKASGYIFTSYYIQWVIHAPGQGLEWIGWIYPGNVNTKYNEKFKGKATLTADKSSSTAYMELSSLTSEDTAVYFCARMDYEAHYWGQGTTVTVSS VL: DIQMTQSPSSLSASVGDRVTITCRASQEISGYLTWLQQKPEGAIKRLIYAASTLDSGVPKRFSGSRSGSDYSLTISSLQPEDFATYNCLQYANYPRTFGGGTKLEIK
644000
